Where do these numbers come from? They come from patent US20260256789A1.

# Lookup of reported pIC50 keyed by entry
Biological target: KRAS G12C (GMPPNP-loaded) and cRAF Ras-binding domain (Homo sapiens, UniProt P01116, C118S/C51S/C80L/G12C)
Construct: truncated version comprising amino acids 1-169
Sequence (P01116 1-169 isoform P01116-2 G12C/C51S/C80L/C118S): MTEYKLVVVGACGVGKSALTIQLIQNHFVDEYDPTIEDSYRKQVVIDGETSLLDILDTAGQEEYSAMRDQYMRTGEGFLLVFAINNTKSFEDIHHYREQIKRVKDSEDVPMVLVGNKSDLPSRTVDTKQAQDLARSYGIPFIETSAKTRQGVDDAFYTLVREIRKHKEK
Experiment: Inhibition of KRAS G12C and cRAF binding (AlphaScreen)
Conditions: KRAS G12C preloaded with GTP analogue GMPPNP, 2 hours preincubation
pIC50: −log10 of the molar value.

Check out these entries, answers already filled in.
Molecule | pIC50
Cc1cc(N)nc(-c2ncc3c(N(C)[C@@H]4CCN(C(=O)/C=C/[C@H]5CCN5C)C4)nc(OC[C@@]45CCCN4C[C@H](F)C5)nc3c2F)c1C(F)(F)F (single isomer, unassigned) | > 8.00
C=CC(=O)N1CC[C@@H](N(C)C2=c3cnc(-c4c[nH]nc4Cl)c(F)c3=NC(OC[C@@]34CCCN3C[C@H](F)C4)N2)C1 (stereo partly drawn) | ≤ 6.30
CN(c1nc(OC[C@@]23CCCN2C[C@H](F)C3)nc2c(F)c(-c3cccc(Cl)c3C3CC3)ncc12)[C@@H]1CCN(C(=O)C#CCN2CCOCC2)C1 | 6.30 to 7.00
CC(C)c1noc(/C=C/C(=O)N2CC[C@@H](N(C)c3nc(OC[C@@]45CCCN4C[C@H](F)C5)nc4c(F)c(-c5nc(N)ccc5F)ncc34)C2)n1 | ≤ 6.30
C=CC(=O)N1CC[C@@H](N(C)c2nc(OC[C@@]34CCCN3C[C@H](F)C4)nc3c(F)c(-c4cccc(OC)c4C4CC4)ncc23)C1 | ≤ 6.30

Look at this molecule and give its reported pIC50. Cc1noc(/C=C/C(=O)N2CC[C@@H](N(C)c3nc(OC[C@@]45CCCN4C[C@H](F)C5)nc4c3CC(C)C(c3nc(N)cc(C)c3C(F)(F)F)C4)C2)n1 (stereo partly drawn) [Example 65]
> 8.00

Look at this molecule and give its reported pIC50. CN1CC[C@@H]1/C=C/C(=O)N1CC[C@@H](N(C)c2nc(OC[C@@]34CCCN3C[C@H](F)C4)nc3c(F)c(-c4cc(O)cc(Cl)c4C4CC4)ncc23)C1
> 8.00

Look at this molecule and give its reported pIC50. Cc1nccc(/C=C/C(=O)N2CC[C@@H](N(C)c3nc(OC[C@@]45CCCN4C[C@H](F)C5)nc4c(F)c(-c5cccc(Cl)c5C5CC5)ncc34)C2)n1
6.30 to 7.00

Look at this molecule and give its reported pIC50. Cc1cc(N)nc(-c2ncc3c(N(C)[C@@H]4CCN(C(=O)/C=C/[C@@H]5CCN5C)C4)nc(OC[C@@]45CCCN4C[C@H](F)C5)nc3c2F)c1C(F)(F)F (single isomer, unassigned) [Example 27]
> 8.00
